Values compiled from ChEMBL document CHEMBL3098085.

Biological target: UniProtKB P35968
Sequence (P35968 whole entry): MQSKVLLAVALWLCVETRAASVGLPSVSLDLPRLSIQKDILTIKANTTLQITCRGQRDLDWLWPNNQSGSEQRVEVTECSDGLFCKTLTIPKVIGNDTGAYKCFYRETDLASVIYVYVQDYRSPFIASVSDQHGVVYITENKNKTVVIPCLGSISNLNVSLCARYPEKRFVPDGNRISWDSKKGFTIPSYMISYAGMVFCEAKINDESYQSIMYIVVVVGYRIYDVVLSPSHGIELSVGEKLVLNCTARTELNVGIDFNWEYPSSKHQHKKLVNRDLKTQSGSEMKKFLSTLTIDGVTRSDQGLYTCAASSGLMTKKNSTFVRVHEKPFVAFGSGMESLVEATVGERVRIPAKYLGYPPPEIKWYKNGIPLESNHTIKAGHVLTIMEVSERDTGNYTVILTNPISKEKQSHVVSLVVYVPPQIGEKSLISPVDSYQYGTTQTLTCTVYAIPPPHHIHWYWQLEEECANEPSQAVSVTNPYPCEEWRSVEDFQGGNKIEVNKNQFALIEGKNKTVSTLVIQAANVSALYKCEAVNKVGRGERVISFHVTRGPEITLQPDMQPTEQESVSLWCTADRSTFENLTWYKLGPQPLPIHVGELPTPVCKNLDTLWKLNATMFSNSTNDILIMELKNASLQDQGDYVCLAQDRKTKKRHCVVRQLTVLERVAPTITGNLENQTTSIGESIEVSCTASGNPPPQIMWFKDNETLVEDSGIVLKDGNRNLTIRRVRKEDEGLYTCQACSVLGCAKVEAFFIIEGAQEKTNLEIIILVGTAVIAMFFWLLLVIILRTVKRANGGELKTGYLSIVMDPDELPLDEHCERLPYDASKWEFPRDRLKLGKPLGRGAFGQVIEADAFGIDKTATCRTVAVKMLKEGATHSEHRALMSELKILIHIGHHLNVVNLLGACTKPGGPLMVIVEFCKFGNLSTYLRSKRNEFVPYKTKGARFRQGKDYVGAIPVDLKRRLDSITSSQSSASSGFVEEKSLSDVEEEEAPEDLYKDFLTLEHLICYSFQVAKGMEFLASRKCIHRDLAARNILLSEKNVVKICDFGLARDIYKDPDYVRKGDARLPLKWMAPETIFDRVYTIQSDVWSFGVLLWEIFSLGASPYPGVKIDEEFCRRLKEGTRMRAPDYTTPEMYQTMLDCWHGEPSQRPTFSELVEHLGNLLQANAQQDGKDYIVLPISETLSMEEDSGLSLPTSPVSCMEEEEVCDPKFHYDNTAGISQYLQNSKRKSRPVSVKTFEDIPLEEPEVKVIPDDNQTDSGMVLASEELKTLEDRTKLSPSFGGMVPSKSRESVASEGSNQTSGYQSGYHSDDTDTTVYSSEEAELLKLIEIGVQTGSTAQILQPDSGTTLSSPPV
quantity: IC50 (µM)

I. COc1cc2nc(Cl)nc(Nc3ccc(S(=O)(=O)Nc4nccs4)cc3)c2cc1OC
II. CN(C)S(=O)(=O)c1ccc(Nc2nc(Cl)nc3cc4c(cc23)OCO4)cc1
Asked: Endpoint returns the identifier whose IC50 is numerically larger, either I or II . Let me know the label of the one you choose.
Given back: II
(II: 23.4 µM, I: 7.79 µM)

###

Record: IC50 reported on Epidermal growth factor receptor (Homo sapiens).
Sequence (P00533 whole entry): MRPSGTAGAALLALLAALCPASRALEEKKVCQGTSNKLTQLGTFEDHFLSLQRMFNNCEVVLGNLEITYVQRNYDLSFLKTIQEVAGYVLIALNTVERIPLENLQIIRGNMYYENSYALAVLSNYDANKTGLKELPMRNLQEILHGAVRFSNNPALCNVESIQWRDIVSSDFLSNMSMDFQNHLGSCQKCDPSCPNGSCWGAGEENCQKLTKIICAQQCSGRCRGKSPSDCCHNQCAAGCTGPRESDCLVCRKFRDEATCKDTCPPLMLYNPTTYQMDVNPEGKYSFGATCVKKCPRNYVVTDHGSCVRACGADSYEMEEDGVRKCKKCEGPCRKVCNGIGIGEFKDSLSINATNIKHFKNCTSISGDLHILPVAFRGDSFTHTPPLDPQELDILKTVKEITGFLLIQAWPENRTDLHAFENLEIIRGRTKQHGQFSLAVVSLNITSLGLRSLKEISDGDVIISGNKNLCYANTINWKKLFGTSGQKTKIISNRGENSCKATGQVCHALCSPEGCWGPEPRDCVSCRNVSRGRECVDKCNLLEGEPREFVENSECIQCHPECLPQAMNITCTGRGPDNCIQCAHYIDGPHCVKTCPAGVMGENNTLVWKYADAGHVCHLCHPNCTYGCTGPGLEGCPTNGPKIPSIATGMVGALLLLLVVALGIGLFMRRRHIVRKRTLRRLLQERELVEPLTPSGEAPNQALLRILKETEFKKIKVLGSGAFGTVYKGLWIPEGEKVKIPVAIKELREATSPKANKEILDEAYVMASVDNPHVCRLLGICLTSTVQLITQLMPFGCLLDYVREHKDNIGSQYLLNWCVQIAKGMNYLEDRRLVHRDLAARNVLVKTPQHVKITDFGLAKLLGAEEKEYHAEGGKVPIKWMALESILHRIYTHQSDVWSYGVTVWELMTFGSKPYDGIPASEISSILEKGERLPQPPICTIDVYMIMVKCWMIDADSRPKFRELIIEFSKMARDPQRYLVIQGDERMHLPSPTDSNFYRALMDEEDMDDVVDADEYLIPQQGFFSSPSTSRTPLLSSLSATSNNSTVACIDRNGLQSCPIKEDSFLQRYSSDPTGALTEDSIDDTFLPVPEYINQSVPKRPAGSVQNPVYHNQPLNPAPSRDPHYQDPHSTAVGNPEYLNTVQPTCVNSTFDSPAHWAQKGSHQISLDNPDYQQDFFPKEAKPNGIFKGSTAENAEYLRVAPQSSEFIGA
quantity: IC50 (µM)

I. COc1cc2nc(Cl)nc(Nc3ccc(S(C)(=O)=O)cc3)c2cc1OC
II. CN(C)S(=O)(=O)c1ccc(Nc2nc(Cl)nc3cc4c(cc23)OCO4)cc1
Asked: I would appreciate it if you could say which entry, I or II , has the lower IC50 value. Let me know the label of the one you choose.
Given back: II
(II: 18.3 µM, I: 61.5 µM)
